Protocol details: Potency in gerbil colon stimulation assay compared to PGE1.
Type: functional
Each entry below carries its reported Relative potency.

Example entries and their recorded answers appear below.
> print(dat)
                                   compound   measured.metric  measured
1  CCCCC[C@H](O)/C=C/C1C(=O)C[C@H](O)[C@@H]1C/C=C\CCCCCC(=O)O (stereo not given in full)  Relative potency      <0.1
2  CCCCC[C@H](O)/C=C/C1C(=O)C=C[C@@H]1C/C=C\CCCC(=O)O (stereo not given in full)  Relative potency       0.1
3  CC/C=C\C[C@H](O)/C=C/C1C(=O)C[C@H](O)[C@@H]1C/C=C\CCCC(=O)O (stereo not given in full)  Relative potency         1

Task: // Relative potency lookup, key: CCCCC[C@](C)(O)/C=C/C1C(=O)C[C@H](O)[C@@H]1C/C=C\CCCC(=O)O (stereo not given in full)
Output: 10

Task: Now the same for CCCCC(C)(C)[C@H](O)/C=C/C1C(=O)C[C@H](O)[C@@H]1C/C=C\CCCC(=O)O (stereo not given in full)
Output: 3

---

Protocol details: Potency in gerbil colon stimulation assay compared to PGE1.
Type: functional
One threshold, 0.3, splits the recorded Relative potency values: lower ones are Fulfilled, equal or higher ones are Not fulfilled.

Example entries begin here.
> print(dat)
                                   molecule  category.label
1  CCCCC[C@H](O)/C=C/C1C(=O)CC[C@@H]1C/C=C\CCCC(=O)O (some centres not stated)   Not fulfilled
2  CCCCC[C@H](O)/C=C/C1C(=O)C[C@H](O)[C@@H]1CCCCCCC(=O)O (some centres not stated)   Not fulfilled
3  CCCCC[C@@H]1/C=C\C2C(=O)CC(O)[C@@H]2C/C=C\CCCC(=O)O1 (some centres not stated)       Fulfilled
4  O=C(O)CCC/C=C\C[C@@H]1C(/C=C/[C@@H](O)CCc2ccccc2)C(=O)C[C@@H]1O (some centres not stated)   Not fulfilled
5  CCCCC/C=C/C=C1/C(=O)C[C@H](O)[C@@H]1C/C=C\CCCC(=O)O       Fulfilled

Task: Does the reported Relative potency of the following molecule sit strictly below 0.3? CCCCC[C@H](O)CCC1C(=O)C[C@H](O)[C@@H]1CCCCCCC(=O)O (some centres not stated)
Output: Fulfilled

Task: Record: CCCCC[C@H](O)/C=C/[C@H]1C(=O)C[C@H](O)[C@@H]1C/C=C/CCCC(=O)O [[3H]PGD2]
Output: Not fulfilled

Task: Request: CCCCC[C@H](O)C/C=C1/C(=O)C[C@H](O)[C@@H]1C/C=C\CCCC(=O)O
Output: Not fulfilled

---

Organism: Homo sapiens
Protocol details: In vitro inhibition of ADP-induced platelet aggregation in human platelet rich plasma.
Type: functional
Measured metric: IC50 (µg/mL)
# number only, unit µg/mL dropped from output

> print(dat)
                                   molecule  measured
1  CCCCC[C@H](O)CCC1C(=O)C[C@H](O)[C@@H]1CCCCCCC(=O)O (stereo partly specified)       3.2

Task: Query: IC50; subject: CCCCC[C@H](O)C/C=C1/C(=O)C[C@H](O)[C@@H]1C/C=C\CCCC(=O)O
Output: 0.1

Task: One more molecule: CCCCC[C@H](O)/C=C/C1C(=O)C[C@H](O)[C@@H]1CCOCCCC(=O)O (stereo partly specified)
Output: 0.032

Task: Entry CCCCC[C@@H]1/C=C\C2C(=O)CC(O)[C@@H]2C/C=C\CCCC(=O)O1 (stereo partly specified) please
Output: 1

Task: Another molecule to check: CCCCC[C@H](O)/C=C/C1C(=O)CC[C@@H]1C/C=C\CCCC(=O)O (stereo partly specified)
Output: 0.001

Task: Okay, and CCCCC[C@H](O)/C=C/C1C(=O)CC(O)[C@@H]1C/C=C\CCCC(=O)O (stereo partly specified) ?
Output: 0.0001

Task: Request: CCCCC[C@H](O)/C=C/C1C(=O)C[C@H](O)[C@@H]1CCCCCCC(=O)O (stereo partly specified)
Output: 0.32

Task: What do you get for CCCCC[C@H](O)/C=C/C1C(=O)CC2OC(=O)CCC/C=C\C[C@@H]21 (stereo partly specified) ?
Output: 0.032

Task: Also CCCCC[C@H](O)/C=C/C1C(=O)C=C[C@@H]1C/C=C\CCCC(=O)O (stereo partly specified) , if possible.
Output: 0.0032

Task: Quick one: CC/C=C\C[C@H](O)/C=C/C1C(=O)C[C@H](O)[C@@H]1C/C=C\CCCC(=O)O (stereo partly specified)
Output: 0.0032

Task: Similarly, CCCCC[C@H](O)/C=C/[C@H]1C(=O)C[C@H](O)[C@@H]1C/C=C/CCCC(=O)O [[3H]PGD2] ?
Output: 0.0032

Task: Next molecule up: O=C(O)CCC/C=C\C[C@@H]1C(/C=C/[C@@H](O)CCc2ccccc2)C(=O)C[C@@H]1O (stereo partly specified)
Output: 3.2

Task: Here is the next molecule: CCCCC[C@H](O)/C=C/C1C(=O)C[C@H](O)[C@@H]1C/C=C\CCCCCC(=O)O (stereo partly specified)
Output: 1

Task: What would you report for CCCCC[C@](C)(O)/C=C/C1C(=O)C=C[C@@H]1C/C=C\CCCC(=O)O (stereo partly specified) ?
Output: 1

Task: Let us now turn to CCCCC/C=C/C=C1/C(=O)C[C@H](O)[C@@H]1C/C=C\CCCC(=O)O
Output: 0.32

Task: How about CCCCC[C@](C)(O)/C=C/C1C(=O)C[C@H](O)[C@@H]1C/C=C\CCCC(=O)O (stereo partly specified) ?
Output: 0.32

meta.source: ChEMBL document CHEMBL1122225
